Task for the reader: assign each of the following molecules its reported electrical conductivity.
experiment: xn = mol fraction of the nth substance listed; conditions: 298.15 K; 100 kPa; Liquid; Alternating current cell with electrodes; x1 = 0.25
Give a bare numeral; the unit S/m is implied.

Q: Recorded electrical conductivity of CCCC[N+](CCCC)(CCCC)Cc1ccccc1.[Cl-] [benzyltributylammonium chloride] + OCCO , please.
Result: 0.064

Q: Same thing, different molecule: C[N+](C)(C)Cc1ccccc1.[Cl-] [trimethylbenzylammonium chloride] + OCCO
Result: 0.461

Q: Same thing, different molecule: C[N+](C)(C)Cc1ccccc1.[Cl-] [trimethylbenzylammonium chloride] + OCCOCCOCCO
Result: 0.101

Q: Same thing, different molecule: CCCC[N+](CCCC)(CCCC)Cc1ccccc1.[Cl-] [benzyltributylammonium chloride] + OCCOCCO
Result: 0.04

Values were extracted from the NIST ThermoML archive (doi:10.1021/acs.jced.8b00213).
